target: Adenosine receptor A2a (Bos taurus); assay: Displacement of [3H]CGS-21680 from adenosine A2A receptor in bovine striatal membranes
The following molecules are shown together with reported Ki values.
A number alone suffices; assume nM.

Reference set, count: 3
molecule	unit.spec	endpoint.value
CCCNc1c(C(=O)OC)cnc2c1cnn2CC(Cl)c1ccccc1 (centres undefined)	nM	7670
CC(C)OC(=O)c1cnc2c(cnn2CC(Cl)c2ccccc2)c1NCCc1ccccc1 (centres undefined)	nM	1520
CCCNc1c(C(=O)OCCC)cnc2c1cnn2CC(Cl)c1ccccc1 (centres undefined)	nM	1390

Problem: Recall and state the measured Ki for COC(=O)c1cnc2c(cnn2CC(Cl)c2ccccc2)c1NCCc1ccccc1 (centres undefined) .
Result: 1230

====

Biological target: UniProt P28190
Sequence (P28190 whole entry): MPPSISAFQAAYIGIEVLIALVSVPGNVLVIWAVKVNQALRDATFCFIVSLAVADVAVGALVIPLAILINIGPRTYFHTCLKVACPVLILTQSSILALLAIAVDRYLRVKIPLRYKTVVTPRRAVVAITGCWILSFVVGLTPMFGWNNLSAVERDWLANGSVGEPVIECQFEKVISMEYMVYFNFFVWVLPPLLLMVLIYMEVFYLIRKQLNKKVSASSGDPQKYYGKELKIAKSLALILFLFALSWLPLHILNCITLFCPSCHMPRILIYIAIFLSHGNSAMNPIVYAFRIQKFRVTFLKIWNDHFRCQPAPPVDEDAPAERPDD
Assay: Displacement of [3H]DPCPX from adenosine A1 receptor in bovine cerebral cortical membranes
Format: cell membranes
observed.property: Ki (nM)
All answers are understood in nM, so give the number only.

Problem: Identify measured Ki corresponding to CCCNc1c(C(=O)OCCC)cnc2c1cnn2CC(Cl)c1ccccc1 (centres undefined)
Result: 145

Problem: State, in one line, measured Ki of CC(C)OC(=O)c1cnc2c(cnn2CC(Cl)c2ccccc2)c1NCCc1cccc(Cl)c1 (centres undefined)
Result: 100

Problem: Please indicate Ki recorded for Cc1ccc(CCNc2c(C(=O)OCC3CC3)cnc3c2cnn3CC(Cl)c2ccccc2)cc1 (centres undefined)
Result: 63

Problem: Report measured Ki; entry is CCCNc1c(C(=O)OCC2CC2)cnc2c1cnn2CC(Cl)c1ccccc1 (centres undefined)
Result: 109

====

target: Adenosine receptor A1 (Bos taurus) (UniProt P28190)
Label 1 when Ki is strictly below 100 nM; otherwise label 0.

Problem: Hello, I'm reviewing records and need to know if Ki of CCCNc1c(C(=O)OC)cnc2c1cnn2CC(Cl)c1ccccc1 (centres undefined) is below 100 nM. Could you check?
Result: 0

Problem: # TODO verify Ki < 100 nM strictly for this compound: CCC(C)OC(=O)c1cnc2c(cnn2CC(Cl)c2ccccc2)c1NCCc1ccccc1 (centres undefined)
Result: 1

Problem: Ki under 100 nM? Item: CCCOC(=O)c1cnc2c(cnn2CC(Cl)c2ccccc2)c1NCCc1ccccc1 (centres undefined)
Result: 0

Problem: Consider the compound COC(=O)c1cnc2c(cnn2CC(Cl)c2ccccc2)c1NCCc1ccccc1 (centres undefined) . Is its Ki strictly less than 100 nM?
Result: 1

Problem: # strict comparison: is reported Ki < 100 nM? input = CCCNc1c(C(=O)OCCC)cnc2c1cnn2CC(Cl)c1ccccc1 (centres undefined)
Result: 0

Problem: Below 100 nM on Ki? Entry Cn1c2ccccc2n2c(=O)c(-c3cccs3)nnc12
Result: 1
